Hey, just so you know, these numbers are from patent US20220380459A1.

Target: T1, human CD33 extracellular domain (human, UniProt P20138 18-259)
T1 construct: soluble monomeric ECD; also called human CD33 ECD; hCD33
Assay: SPR, Fab captured, 37C;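 further: fabs captured on an anti-Fab surface, soluble monomeric CD33 ECD flowed over at several concentrations, double-referenced curves fit to a 1:1 binding model, KD taken as koff/kon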
# note: exactly 0.004 s⁻¹ is not below, so it is F; use T for koff strictly under it

binder: ADI-11807 Fab (Fab, V domains shown, Fab fragment; also called Ab5; I07) VH: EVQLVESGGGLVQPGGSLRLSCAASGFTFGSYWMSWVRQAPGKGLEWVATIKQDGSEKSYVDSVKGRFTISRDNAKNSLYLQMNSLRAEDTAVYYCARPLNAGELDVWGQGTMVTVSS VL: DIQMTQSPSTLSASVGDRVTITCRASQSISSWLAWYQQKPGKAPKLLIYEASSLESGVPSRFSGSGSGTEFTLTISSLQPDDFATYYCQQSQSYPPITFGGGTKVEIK
class.label: T

Kindly consider the entry below.
Prompt line: Hi there! Is koff for ADI-11825 Fab (Fab, V domains shown, Fab fragment; also called Ab25) VH: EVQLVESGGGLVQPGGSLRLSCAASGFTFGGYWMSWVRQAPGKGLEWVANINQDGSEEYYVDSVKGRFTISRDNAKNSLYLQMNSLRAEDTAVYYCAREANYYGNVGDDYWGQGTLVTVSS VL: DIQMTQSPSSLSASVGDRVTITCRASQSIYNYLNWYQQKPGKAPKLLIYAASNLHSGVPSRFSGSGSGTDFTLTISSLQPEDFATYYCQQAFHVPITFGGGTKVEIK below 0.004 s⁻¹, do you know?
Response line: T
